# Procedure text: Cytotoxicity against human THP1 cells
# Assay type: cell-based
# Study conditions: THP-1 cells
Attribute measured: CC50

(Q) Name the reported CC50 value associated with the compound `O=C(Nc1ccc(Cl)cc1)c1c(NC(=O)C(F)(F)F)sc2c1CCCCC2`
(A) > 50 µM

(Q) And for `COc1ccc(NC(=O)c2c(NC(=O)C(F)(F)F)sc3c2CCCCC3)cc1` ?
(A) > 50 µM

(Q) And for `COc1ccc(NC(=O)c2ccsc2NC(=O)C(F)(F)F)cc1` ?
(A) > 50 µM

(Q) And for `N#Cc1ccc(NC(=O)c2c(NC(=O)C(F)(F)F)sc3c2CCCCC3)cc1` ?
(A) 9.11 µM

(Q) And for `CC(C)(C)OC(=O)c1c(N)sc2c1CCCCC2` ?
(A) > 50 µM

(Q) And for `CC(=O)Nc1sc2c(c1C(=O)OC(C)(C)C)CCCCC2` ?
(A) > 50 µM
